assayRemarks: in vitro
conditionNotes: rat, gh3-tre-luc cells, AC50 (uM) modified / 1000
readout: CC50 at 24 h

Solved cases (10 shown):
The compound listed as CC1(CN2CCC(n3c(=O)[nH]c4ccccc43)CC2)OCc2ccccc2-n2cccc21 (stereo not shown) [Zaldaride] has a reported CC50 at 24 h of 32.7 µM

// CC50 at 24 h lookup, compound = c1cc2ccc3ccc4ccc5cccc6c(c1)c2c3c4c56 , result: > 4 µM

Noted for C=CC(C)(CCC=C(C)C)OC(=O)/C=C/c1ccccc1 (stereo not shown) [Linalyl cinnamate] : its CC50 at 24 h reads > 90 µM

Value of CC50 at 24 h reported for the compound O=C(OCC1CCC2OC2C1)C1CCC2OC2C1 (stereo not shown) is > 100 µM

Input O=C(Nc1ccccc1)c1cc([N+](=O)[O-])ccc1Cl [2-Chloro-5-nitro-N-phenylbenzamide] . Output CC50 at 24 h: 49.9 µM

Documented CC50 at 24 h of CC(C)=CCCC(C)CCO (stereo not shown) : > 100 µM

Notebook: Cc1cccnc1 , CC50 at 24 h read as > 90 µM

CC50 at 24 h in this record for C[C@@H](CN1CC(=O)NC(=O)C1)N1CC(=O)NC(=O)C1 : > 50 µM

Reported CC50 at 24 h ( Cc1cc([N+](=O)[O-])ccc1N ) = > 90 µM

Documented CC50 at 24 h of CC=C(C)C(=O)OCCC(C)CCC=C(C)C (stereo not shown) : > 90 µM

Further cases:
For reference, reported CC50 at 24 h for O=C(O)/C=C/C(O)c1ccc(Cl)cc1 (stereo not shown) stands at > 50 µM

According to the records, this compound O=[N+]([O-])c1ccc2c3c(cccc13)CC2 displays CC50 at 24 h of > 90 µM

// S=C=S [Carbon disulfide] : CC50 at 24 h value = > 90 µM

# CC50 at 24 h (compound: C=C(C)C(=O)O ) is > 90 µM

Field CC50 at 24 h (entry OC[C@H]1O[C@@H](O[C@H]2[C@H](O)[C@@H](O)C(O)O[C@@H]2CO)[C@H](O)[C@@H](O)[C@H]1O (stereo partly shown) ) reads > 90 µM

// recorded CC50 at 24 h for COC(C)=O [Methyl acetate] : > 90 µM

* * *

System: GH3-TRE-Luc cell line
conditionNotes: read-out: AC50 (uM) modified / 1000; Tox21_110001=Tox21_200978; viability, 1 nM T3 present, 24 h
readout: CC50 (µM)
Give the value, in units of µM, as a plain number.

Recorded result, COc1ccc(CN(CCN(C)C)c2ccccn2)cc1 [Pyrilamine] , CC50: 39.2

* * *

Measured CC50 at 24 h values are reported for all entries that follow.
assayRemarks: in vitro
conditionNotes: rat, gh3-tre-luc cells, AC50 (uM) modified / 1000
Counter-ions that a name gives are not always drawn.

Here's what some known entries look like.
Short answer for CN1CCCN(C(c2ccccc2)c2ccc(Cl)cc2)CC1 (stereo not drawn) [Homochlorcyclizine] : CC50 at 24 h was 7.44 µM

Form: molecule = C=CCSSSCC=C [Diallyl trisulfide] ; CC50 at 24 h = > 50 µM

The recorded CC50 at 24 h for entry C=CC(=O)OCC(C)C [Isobutyl acrylate] equals > 90 µM

Summary for this molecule, CC(C)C(=O)c1c(C(C)C)nn2ccccc12 [Ibudilast] : CC50 at 24 h is > 50 µM

The value of CC50 at 24 h measured for the molecule Cc1ccc(C(=O)O)cc1[N+](=O)[O-] [4-Methyl-3-nitrobenzoic acid] turned out to be > 90 µM

---
Measured CC50 at 24 h of CCN(Cc1cccc(S(=O)(=O)O)c1)c1ccc(C(=C2C=CC(=[N+](CC)Cc3cccc(S(=O)(=O)[O-])c3)C=C2)c2ccccc2)cc1 [FD&C Green No. 1] : > 70 µM

// recorded CC50 at 24 h for COC(=O)N(OC)c1ccccc1COc1ccn(-c2ccc(Cl)cc2)n1 [Pyraclostrobin] : 59.8 µM

The reported CC50 at 24 h of the molecule N=C(N)n1cccn1 [Praxadine hydrochloride] was > 50 µM

Item: Cc1cc(C)c(S(=O)(=O)O)cc1N=Nc1cc(S(=O)(=O)O)c2ccccc2c1O [FD&C Red 4] | CC50 at 24 h: 33.6 µM
